target: BACE1 enzyme (Homo sapiens, UniProt P56817); construct: transfected with a soluble BACE construct (BACE1deltaTM96His); His (C); assay: BACE1 Cell-Free Assay (fluorescence polarization, cleavage of synthetic APP substrate); conditions: geometric mean of 2-4 determinations unless otherwise indicated (b: ≥5 determinations; c: single determination); 0.1 nM BACE1, 150 nM peptide substrate, pH 4.5, 3 hours at 37° C.
Sequence (P56817 46-457 limits assumed): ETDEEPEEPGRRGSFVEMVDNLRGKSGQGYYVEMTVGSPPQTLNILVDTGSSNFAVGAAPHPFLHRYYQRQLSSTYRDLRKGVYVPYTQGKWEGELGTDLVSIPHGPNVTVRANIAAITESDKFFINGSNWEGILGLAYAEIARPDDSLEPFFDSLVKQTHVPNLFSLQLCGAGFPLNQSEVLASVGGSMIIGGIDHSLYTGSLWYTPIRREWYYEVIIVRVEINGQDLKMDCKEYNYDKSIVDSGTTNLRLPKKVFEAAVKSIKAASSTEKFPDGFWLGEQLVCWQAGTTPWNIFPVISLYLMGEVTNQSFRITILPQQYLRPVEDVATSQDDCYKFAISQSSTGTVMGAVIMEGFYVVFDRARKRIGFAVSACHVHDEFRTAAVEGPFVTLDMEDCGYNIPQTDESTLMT
PROPERTY: pIC50
One number for each entry, as −log10 of the molar value.

Example entries and their recorded answers appear below.
>>> reported_result("CC1(C)C[C@@H]2CSC(N)=N[C@]2(c2nc(NC(=O)c3coc(CF)n3)cs2)CO1 (single isomer, unassigned)")
4.82
>>> reported_result("NC1=N[C@@]2(c3nc(NC(=O)c4ccc(OC(F)F)cn4)cs3)COC(CF)(CF)C[C@H]2CS1")
6.25

For BACE1 enzyme (Homo sapiens, UniProt P56817), give pIC50 of the listed compound: CC1(C)C[C@H]2CSC(N)=N[C@@]2(c2nc(NC(=O)c3coc(CF)n3)cs2)CO1 (single isomer, unassigned)
7.77
